- System: CCRF S-180
- procedure details: Optimal dose towards sarcoma 180 cells, inoculated subcutaneously to the axillary region of ddY mice
- Format: functional, Mus musculus
This section presents molecules with their documented OD values.
endpoint label: OD (mg/kg)

>>> data_value("CO[C@@]12[C@H](COC(N)=O)C3=C(C(=O)C(COC(C)C)=C(N)C3=O)N1C[C@@H]1N[C@@H]12")
50
>>> data_value("CO[C@@]12[C@H](COC(N)=O)C3=C(C(=O)C(CSC4OC(COC(C)=O)C(OC(C)=O)C(OC(C)=O)C4OC(C)=O)=C(N)C3=O)N1C[C@@H]1N[C@@H]12 (some centres not stated)")
25
>>> data_value("CO[C@@]12[C@H](COC(N)=O)C3=C(C(=O)C(CSc4nccs4)=C(N)C3=O)N1C[C@@H]1N[C@@H]12")
13
>>> data_value("CO[C@@]12[C@H](COC(N)=O)C3=C(C(=O)C(CSc4ccccc4O)=C(N)C3=O)N1C[C@@H]1N[C@@H]12")
46
>>> data_value("CO[C@@]12[C@H](COC(N)=O)C3=C(C(=O)C(CSc4cccs4)=C(N)C3=O)N1C[C@@H]1N[C@@H]12")
46
>>> data_value("CO[C@@]12[C@H](COC(N)=O)C3=C(C(=O)C(CSc4ncccc4O)=C(N)C3=O)N1C[C@@H]1N[C@@H]12")
6.3
>>> data_value("COC(=O)CCSCC1=C(N)C(=O)C2=C(C1=O)N1C[C@@H]3N[C@@H]3[C@]1(OC)[C@@H]2COC(N)=O")
3.1

----------
- Tested on: Mus musculus
- procedure details: In vivo antitumor activity against lymphatic leukemia P388 cells sensitive to mitomycin C (MMC) was measured as maximal increase in life span of the treated mice at optimal dose of 3.1 mg/kg
- Assay type: functional
This section presents compounds with their documented ILS at 3.1 mg/kg values.
endpoint label: ILS at 3.1 mg/kg

>>> data_value("CO[C@@]12[C@H](COC(N)=O)C3=C(C(=O)C(CSc4ncccc4O)=C(N)C3=O)N1C[C@@H]1N[C@@H]12")
"49%"
>>> data_value("CO[C@@]12[C@H](COC(N)=O)C3=C(C(=O)C(CSC4=NCCS4)=C(N)C3=O)N1C[C@@H]1N[C@@H]12")
"62%"
>>> data_value("COC(=O)CCSCC1=C(N)C(=O)C2=C(C1=O)N1C[C@@H]3N[C@@H]3[C@]1(OC)[C@@H]2COC(N)=O")
"69%"
>>> data_value("CO[C@@]12[C@H](COC(N)=O)C3=C(C(=O)C(CSc4nc(C)cc(C)n4)=C(N)C3=O)N1C[C@@H]1N[C@@H]12")
"50%"
>>> data_value("CO[C@@]12[C@H](COC(N)=O)C3=C(C(=O)C(CSc4nccs4)=C(N)C3=O)N1C[C@@H]1N[C@@H]12")
"49%"

----------
pIC50 for assorted compounds
- System: HeLa
- procedure details: In vitro anticellular activity tested against HeLa S3 cells
- Assay type: functional, cell-based
- study conditions: Homo sapiens
pIC50: −log10 of the molar value.
endpoint label: pIC50

>>> data_value("CO[C@@]12[C@H](COC(N)=O)C3=C(C(=O)C(CSc4nccn4C)=C(N)C3=O)N1C[C@@H]1N[C@@H]12")
6.12
>>> data_value("CO[C@@]12[C@H](COC(N)=O)C3=C(C(=O)C(CSc4ncccn4)=C(N)C3=O)N1C[C@@H]1N[C@@H]12")
6.02
>>> data_value("CO[C@@]12[C@H](COC(N)=O)C3=C(C(=O)C(CSc4nnc(C)s4)=C(N)C3=O)N1C[C@@H]1N[C@@H]12")
5.96

Reference source: ChEMBL document CHEMBL1127752
